# EXPERIMENTAL_SYSTEM: Cytochrome P450 2C19 (Homo sapiens)
# PROTOCOL_DETAILS: Cytochrome panel assay with activity outcomes
# CONDITION_LABEL: recombinant CYP, pro-luciferin dealkylation, luminescence, p450-cyp2c19; series mostly up to 57.1 µM
Out of some 16,000 compounds screened, about 5,800 (36%) were called active. Roughly 23% stayed inconclusive and do not appear here. The call rests on the fitted dose curve; in most records, active means well fitted curve in the direction sought with a large enough effect; inconclusive means small, poorly fitted or top-dose-only effect, or effect the other way; inactive means no such curve, though single readings can be large or run the other way. The list shows a part of the results.
Entry note: the call must match one of active, inactive

Sample answers from the record:
COMPOUND	QUALITATIVE_LABEL
CCn1c(SCC(=O)N/N=C/C=C\c2ccccc2[N+](=O)[O-])nnc1-c1ccccc1	active
Cc1ccccc1C(=O)Oc1ccc(Br)cc1C(=S)N1CCCC1	active
O=C1C2Sc3[nH]c(=O)sc3C(c3ccccc3)C2C(=O)N1c1ccc(Cl)cc1 (stereo not given)	active

query: What outcome does the record of this test show for `Cc1nc(SCc2cccc(Oc3ccccc3)c2)n[nH]1` ?
result: active

query: What did the test return for `CCOC(=O)c1nnc(-c2ccccc2)nc1NCc1ccccc1` ?
result: active

query: What outcome does the record of this test show for `C1COC(NC(C2CC2)C2CC2)=N1` ?
result: inactive

query: Called result for `O=S(=O)(NCc1cccnc1)c1ccc(Cl)nc1`
result: active

query: // outcome(item) with item = `Cc1nn(-c2ccccc2)c(Cl)c1/C=N/NC(=O)c1ccco1`
result: active

query: // param item: `Cn1c(C(F)(F)F)nc2c(=O)oc3ccccc3c21` ; yields the recorded call
result: inactive

query: // outcome(item) with item = `COc1ccc2cc(C)c3nnc(SCC(=O)Nc4nc(-c5ccccc5)cs4)n3c2c1`
result: active

###

Collected activity, negative = inhibition values appear next to each entry.
# EXPERIMENTAL_SYSTEM: Cytochrome P450 2C19 (Homo sapiens) (UniProt P33261)
# Sequence (P33261 whole entry, looked up): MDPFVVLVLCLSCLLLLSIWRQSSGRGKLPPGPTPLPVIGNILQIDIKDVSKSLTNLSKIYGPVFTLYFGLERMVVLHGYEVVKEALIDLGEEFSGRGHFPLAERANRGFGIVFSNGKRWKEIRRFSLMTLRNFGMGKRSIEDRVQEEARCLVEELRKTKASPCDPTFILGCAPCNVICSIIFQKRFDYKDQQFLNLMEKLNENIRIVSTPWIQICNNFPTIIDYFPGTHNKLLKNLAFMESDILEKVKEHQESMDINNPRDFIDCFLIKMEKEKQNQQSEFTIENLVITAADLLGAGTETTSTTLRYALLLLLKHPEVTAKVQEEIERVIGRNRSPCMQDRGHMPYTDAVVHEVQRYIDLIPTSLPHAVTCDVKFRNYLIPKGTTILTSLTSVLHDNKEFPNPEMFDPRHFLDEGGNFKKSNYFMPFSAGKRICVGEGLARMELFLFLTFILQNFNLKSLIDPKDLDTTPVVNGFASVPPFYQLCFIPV
# PROTOCOL_DETAILS: Cytochrome panel assay with activity outcomes; on activity, negative = inhibition: on the % scale 0 is the no-effect control and ±100 the full control effect
# CONDITION_LABEL: recombinant CYP, pro-luciferin dealkylation, luminescence, p450-cyp2c19; series mostly up to 57.1 µM
Screen size: about 16,000 compounds; about 5,800 (36%) were called active. Roughly 23% stayed inconclusive and do not appear here. The list shows a part of the results.

O=C(O)COc1c(Cl)cc(Cl)c2cccnc12 26% [at 11.4 µM] (inactive)
O=C(O)C[C@H]1OCC=C2C[N@@+]3([O-])CC[C@]45c6ccccc6N[C@@H]4[C@@H]1[C@H]2C[C@H]53 13.9% [at 11.4 µM] (inactive)
Nc1nc(SCC(=O)O)[nH]c(=O)c1N 25.5% [at 11.4 µM] (inactive)
O=C(N/N=C1/C[C@@H](O)[C@@H](O)[C@@H]2[C@H]3C(=O)N(c4ccc(F)cc4F)C(=O)[C@@H]3CC[C@H]12)OCc1ccccc1 -27.3% [at 11.4 µM] (inactive)
CC(C)(C)c1ccc(-c2nnc(SCc3ccc(Cl)cc3)n2-c2cccc(C(F)(F)F)c2)cc1 -28.9% [at 11.4 µM] (inactive)
O=c1c2ccccc2sc2c(CO)ccc(NCCN3CCCCC3)c12 -24.6% [at 11.4 µM] (inactive)
O=C(O)CCNc1ccccc1C(=O)O 16.3% [at 11.4 µM] (inactive)
ON(CCc1ccccn1)Cc1ccccc1 -32.5% [at 11.4 µM] (inactive)

query: activity, negative = inhibition lookup needed for `c1ccc(CCN2CCN=C2Cc2ccccc2)cc1` , thanks.
result: 7.77% [at 11.4 µM] (inactive)

###

# EXPERIMENTAL_SYSTEM: Cytochrome P450 2C19 (Homo sapiens)
# PROTOCOL_DETAILS: Cytochrome panel assay with activity outcomes
# CONDITION_LABEL: recombinant CYP, pro-luciferin dealkylation, luminescence, p450-cyp2c19; series mostly up to 57.1 µM
Out of some 16,000 compounds screened, about 5,800 (36%) were called active. About 23% were inconclusive and are not listed. Calls follow the shape of the dose curve; as a rule, active = well fitted curve in the direction sought with a large enough effect; inconclusive = small, poorly fitted or top-dose-only effect, or effect the other way; inactive = no such curve, though single readings can be large or run the other way. This is one part of the list.
Tick one outcome: active, inactive

Record excerpt, results attached:
COMPOUND	QUALITATIVE_LABEL
CC1CC2=C(NC(=S)NC2c2ccc(F)cc2)/C(=C/c2ccc(F)cc2)C1 (stereo unspecified)	active
Cc1ccc(-n2c(=O)c3sccc3n(CC(=O)NCc3ccco3)c2=O)cc1F	inactive
Cc1nc(NC(=O)c2ccccc2)sc1-c1csc(Nc2cccc(Cl)c2)n1	active
Cc1c(NC(=O)CSc2nnc3c4ccccc4n(CCc4ccccc4)c3n2)c(=O)n(-c2ccccc2)n1C	active
C/C(=N\Nc1ccc([N+](=O)[O-])cc1)c1cccc(N)c1	active
Cc1ccc(C(=O)N2C3C=CC(C3)C2(C(F)(F)F)C(F)(F)F)cc1 (stereo unspecified)	active
Cc1cc(=O)c2cc(Cl)ccc2[nH]1	inactive
Cc1nc(NC(=O)c2ccccc2)sc1-c1csc(Nc2ccc(Cl)cc2Cl)n1	active

query: Name the outcome recorded for `CCNc1ncc2nc(-c3ccc(Cl)cc3)c(=O)n(C)c2n1` in the assay.
result: inactive

query: Per the records of this test, what outcome belongs to `CN1CCN(c2ncc3nc(-c4cc(F)cc(F)c4)c(=O)n(C)c3n2)CC1` ?
result: inactive

query: Recorded test outcome, item `Cc1nnc(NC(=O)c2cccc(NC(=O)C(C)C)c2)s1`
result: inactive

###

# EXPERIMENTAL_SYSTEM: Cytochrome P450 2C19 (Homo sapiens)
# PROTOCOL_DETAILS: Cytochrome panel assay with activity outcomes
# CONDITION_LABEL: recombinant CYP, pro-luciferin dealkylation, luminescence, p450-cyp2c19; series mostly up to 57.1 µM
In all, about 16,000 compounds went through this assay and about 5,800 (36%) were called active. Not shown: some 23% with an inconclusive outcome. This is one part of the list.
MEASUREMENT_KIND: AC50

Illustrative cases are given below, each with its answer.
COMPOUND	REPORTED_MEASUREMENT
CCn1cc(C(=O)N/N=C(/C)c2ccc(F)cc2)c(=O)c2cc(F)c(N3CCCC3)cc21	4.47 µM (active)
COc1cc2c(cc1OC)CN(C(=S)Nc1ccccc1)CC2	2.51 µM (active)
O=C(O)CCC(=O)N1CCc2cc(S(=O)(=O)N3CCCCC3)ccc21	inactive
O=c1c2cc(Br)ccc2[nH]c(=S)n1Cc1cccnc1	1.58 µM (active)
O=c1ncn(-c2ccccc2F)c2ncccc12	inactive

query: I am curious: what AC50 value has been reported for `O[C@H](CCCN1CCN(c2ncc(F)cn2)CC1)c1ccc(F)cc1` ?
result: inactive

query: Consider the compound `O=C(c1cnccn1)N1CCC[C@@]2(CCN(c3ncccn3)C2)C1` and give its measured AC50.
result: inactive

query: Item `C/C=C\C(=O)N(CC)c1ccccc1C` has what recorded AC50?
result: inactive

query: Please report the recorded AC50 for `CN1CCN(c2ncc3nc(-c4cn(C)c5ccccc45)c(=O)n(CCc4ccccc4)c3n2)CC1` .
result: inactive

query: Which AC50 reading was recorded for the compound `O=C(O)CCCCCCCC(=O)O` ?
result: inactive

###

# EXPERIMENTAL_SYSTEM: Cytochrome P450 2C19 (Homo sapiens) (UniProt P33261)
# PROTOCOL_DETAILS: Cytochrome panel assay with activity outcomes
# CONDITION_LABEL: recombinant CYP, pro-luciferin dealkylation, luminescence, p450-cyp2c19; series mostly up to 57.1 µM
The whole screen tested about 16,000 compounds, of which about 5,800 (36%) were called active. Inconclusive results (about 23%) are left out. Calls follow the shape of the dose curve; as a rule, active = well fitted curve in the direction sought with a large enough effect; inconclusive = small, poorly fitted or top-dose-only effect, or effect the other way; inactive = no such curve, though single readings can be large or run the other way. This is one part of the list.
Give one outcome, nothing more. List: active, inactive

Worked examples, 3 compounds total:
Cc1ccc(NC(=S)N2CCN(C3CCCCC3)CC2)cc1 active
CN(C)C(=O)c1ccc(-c2cc(N(C)Cc3ccco3)ncn2)cc1 inactive
CN(Cc1ccco1)c1cc(-c2ccc3c(c2)OCO3)ncn1 active

Now consider the entry below.
query: Tell me the recorded outcome of this test for `S=C(NCc1ccccn1)Nc1cccc(Cl)c1` .
result: active

###

# EXPERIMENTAL_SYSTEM: Cytochrome P450 2C19 (Homo sapiens)
# PROTOCOL_DETAILS: Cytochrome panel assay with activity outcomes
# CONDITION_LABEL: recombinant CYP, pro-luciferin dealkylation, luminescence, p450-cyp2c19; series mostly up to 57.1 µM
Out of some 16,000 compounds screened, about 5,800 (36%) were called active. Roughly 23% stayed inconclusive and do not appear here. Calls come from the whole dose curve; as a rule, active = well fitted curve in the direction sought with a large enough effect; inconclusive = small, poorly fitted or top-dose-only effect, or effect the other way; inactive = no such curve, though single readings can be large or run the other way. The list shows a part of the results.
Answer with one of the outcomes given here: TRUE = active, FALSE = inactive

query: Hi, sorry to bother you, what did the test record for `Cc1cccc(N(NC(=O)C(C)(C)O)C(=O)c2ccccc2)c1` ?
result: TRUE

query: Test call, this compound: `CCC(=O)Nc1nnc(C(C)(C)C)s1`
result: FALSE

query: Assay result, entry `O=C(CCCCCN1C(=O)c2ccccc2C1=O)NCc1ccccn1` — outcome?
result: FALSE

###

# EXPERIMENTAL_SYSTEM: Cytochrome P450 2C19 (Homo sapiens) (UniProt P33261)
# PROTOCOL_DETAILS: Cytochrome panel assay with activity outcomes
# CONDITION_LABEL: recombinant CYP, pro-luciferin dealkylation, luminescence, p450-cyp2c19; series mostly up to 57.1 µM
About 5,800 (36%) of roughly 16,000 compounds were called active. Roughly 23% stayed inconclusive and do not appear here. Calls come from the whole dose curve; as a rule, active = well fitted curve in the direction sought with a large enough effect; inconclusive = small, poorly fitted or top-dose-only effect, or effect the other way; inactive = no such curve, though single readings can be large or run the other way. The list shows a part of the results.
Tick one outcome: active, inactive

COMPOUND	QUALITATIVE_LABEL
COC(=O)C1CC1C(NC(=O)[C@H]1CCCCN1)c1ccccc1 (some centres undefined)	inactive
O=C(c1cnccn1)N1CCC2(CCN(Cc3nccs3)CC2)CC1	inactive
CC(C)C(=O)NCCc1nc2ccccc2n1CCCOc1ccc(Cl)cc1	active

Continue with the next compound.
query: Write down the call the test reported for this compound. Item: `Cc1cc(NC(=O)CSc2nc3ccccc3c(=O)n2CCCC(=O)NCc2ccco2)n[nH]1`
result: active
